- PROTOCOL_TEXT: Blood plasma stability, mouse
- Format: in vitro ADME
- EXPERIMENTAL_PARAMETERS: mouse, blood plasma; read-out: Blood Plasma Stability (T1/2, min) Mouse
VALUE_TYPE: half-life

# MOLECULE, RECORDED_VALUE
measured = [
    ("C[C@@H]1[C@H](O)[C@@H](C)/C=C/C=C/C=C/C=C/C=C/C=C/C=C/[C@H](OC2O[C@H](C)[C@@H](O)[C@H](N)[C@@H]2O)C[C@@H]2O[C@](O)(C[C@@H](O)C[C@@H](O)[C@H](O)CC[C@@H](O)C[C@@H](O)CC(=O)O[C@H]1C)C[C@H](O)[C@H]2C(=O)O (stereo partly shown)", "> 289 min"),
]

====

- PROTOCOL_TEXT: Blood plasma stability, human
- Assay type: in vitro ADME
- EXPERIMENTAL_PARAMETERS: human, blood plasma; read-out: Blood Plasma Stability (T1/2, min) Human

# COMPOUND, half-life
measured = [
    ("C[C@@H]1[C@H](O)[C@@H](C)/C=C/C=C/C=C/C=C/C=C/C=C/C=C/[C@H](OC2O[C@H](C)[C@@H](O)[C@H](N)[C@@H]2O)C[C@@H]2O[C@](O)(C[C@@H](O)C[C@@H](O)[C@H](O)CC[C@@H](O)C[C@@H](O)CC(=O)O[C@H]1C)C[C@H](O)[C@H]2C(=O)O (stereo partly shown) [AmB, Amphotericin B]", "> 289 min"),
]

====

- PROTOCOL_TEXT: Liver microsome stability
- EXPERIMENTAL_PARAMETERS: mouse, rat, dog, monkey, human, liver microsomes

# MOLECULE, half-life
records = [
    ("C[C@@H]1[C@H](O)[C@@H](C)/C=C/C=C/C=C/C=C/C=C/C=C/C=C/[C@H](OC2O[C@H](C)[C@@H](O)[C@H](N)[C@@H]2O)C[C@@H]2O[C@](O)(C[C@@H](O)C[C@@H](O)[C@H](O)CC[C@@H](O)C[C@@H](O)CC(=O)O[C@H]1C)C[C@H](O)[C@H]2C(=O)O (stereo partly shown)", "> 2.42 h"),
]

Source: patent US12655173B2
